Would you mind telling me the reported pIC50 of each entry?
molecular target: KRas(G12V) (Homo sapiens (Human), UniProt P01116, G12V); assay: KRas(G12V) GDP HTRF (BODIPY-GDP exchange TR-FRET)
Sequence (P01116-2 other isoform, or with tags, fused parts or gaps G12V): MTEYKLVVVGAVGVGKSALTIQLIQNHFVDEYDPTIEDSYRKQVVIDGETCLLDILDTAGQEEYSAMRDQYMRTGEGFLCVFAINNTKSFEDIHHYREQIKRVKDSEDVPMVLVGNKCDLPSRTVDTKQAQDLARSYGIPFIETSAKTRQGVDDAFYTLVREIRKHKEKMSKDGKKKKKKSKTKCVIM
In textbook form, pIC50 equals minus log to base ten of the concentration in mol/L.

Bench note: what pIC50 did Cc1cc(N)nc(-c2c(Cl)c3c4c(nc(OC(C)(C)[C@@H]5CC(F)(F)CN5C)nc4c2F)N([C@H](C)c2cccnc2N)CCO3)c1C(F)(F)F (atropisomer, axis not shown) [Example 72] show?
7.92

Bench note: what pIC50 did Cc1cc(N)nc(-c2c(Cl)c3c4c(nc(OC[C@@]56CCCN5C[C@H](F)C6)nc4c2F)N([C@H](C)c2cccnc2N)CCO3)c1C(F)(F)F (atropisomer, axis not shown; (aS)) [Example 48] show?
10.40

Bench note: what pIC50 did Cc1cc(N)nc(-c2c(Cl)c3c4c(nc(OC[C@@H]5CCN5CC(F)F)nc4c2F)N([C@H](C)c2cccnc2N)CCO3)c1C(F)(F)F (atropisomer, axis not shown) [Example 109] show?
9.74

---

molecular target: KRas(G12V) (Homo sapiens (Human), UniProt P01116, G12V); experiment: KRas(G12V) GDP HTRF (BODIPY-GDP exchange TR-FRET)
RECORDED_ENDPOINT: IC50 (nM)
Express the result in nM but write the number alone.

Bench note: what IC50 did Cc1cc(N)nc(-c2c(Cl)c3c4c(nc(OC[C@H](C)N5CCOCC5)nc4c2F)N([C@H](C)c2cccnc2N)CCO3)c1C(F)(F)F (atropisomer, axis not shown) [Example 95a] show?
0.09

Bench note: what IC50 did Cc1cc(N)nc(-c2cc3ncnc4c3c(c2Cl)OCCN4Cc2cccc(=O)[nH]2)c1C(F)(F)F [Example 12] show?
8900

Bench note: what IC50 did Cc1cc(N)nc(-c2c(Cl)c3c4c(nc(OC[C@@]56CCCN5C[C@H](F)C6)nc4c2F)N([C@H](C)c2cccnc2N)CCO3)c1C(F)(F)F (atropisomer, axis not shown; (aS)) [Example 107] show?
90

Bench note: what IC50 did Cc1cc(N)nc(-c2c(Cl)c3c4c(nc(OC[C@@]56CCCN5CC(F)(F)C6)nc4c2F)N([C@H](C)c2nccnc2N)CCO3)c1C(F)(F)F (atropisomer, axis not shown) [Example 165a] show?
0.69

Bench note: what IC50 did C=C1CN2CCC[C@@]2(COc2nc3c4c(c(Cl)c(-c5nc(N)cc(C)c5C(F)(F)F)c(F)c4n2)OCCN3C)C1 [Example 40] show?
0.99

Bench note: what IC50 did C[C@H](c1cccnc1N)N1CCOc2c(Cl)c(-c3cccc4sc(N)nc34)c(F)c3nc(OC[C@@]45CCCN4C[C@H](F)C5)nc1c23 (atropisomer, axis not shown; (aS)) [Example 100b] show?
0.73

Bench note: what IC50 did Cc1cc(N)nc(-c2c(Cl)c3c4c(nc(OC[C@@H]5CC(F)(F)CN5C)nc4c2F)N([C@H](C)c2cncnc2N)CCO3)c1C(F)(F)F (atropisomer, axis not shown) [Example 83a] show?
0.19

Bench note: what IC50 did Cc1cc(N)nc(-c2cc3ncnc4c3c(c2Cl)OCCN4[C@@H](C)c2cccnc2N)c1C(F)(F)F [Example 18] show?
35

Bench note: what IC50 did Cc1cc(N)nc(-c2c(Cl)c3c4c(nc(OC[C@H]5C[C@@H]6COCCN65)nc4c2F)N([C@H](C)c2cccnc2N)CCO3)c1C(F)(F)F (atropisomer, axis not shown) [Example 99b] show?
0.08

Bench note: what IC50 did Cc1cc(N)nc(-c2c(Cl)c3c4c(nc(OC[C@@]56CCN5CC(F)(F)C6)nc4c2F)N([C@H](C)c2nccnc2N)CCO3)c1C(F)(F)F (single isomer, unassigned) [Example 162c] show?
370

Bench note: what IC50 did Cc1cc(N)nc(-c2c(Cl)c3c4c(nc(OCCO)nc4c2F)N([C@H](C)c2cccnc2N)CCO3)c1C(F)(F)F (atropisomer, axis not shown) [Example 156] show?
0.19

Bench note: what IC50 did Cc1cc(N)nc(-c2c(Cl)c3c4c(nc(OC[C@@]56CCN5CC(F)(F)C6)nc4c2F)N([C@H](C)c2nccnc2N)CCO3)c1C(F)(F)F (single isomer, unassigned) [Example 162d] show?
410

Bench note: what IC50 did Cc1cc(N)nc(-c2cc3ncnc4c3c(c2Cl)OCCN4Cc2cc(Cl)cnc2N)c1C(F)(F)F [Example 52] show?
2400

Bench note: what IC50 did Nc1ncccc1CN1CCOc2c(Cl)c(-c3cccc4ccccc34)cc3nc(OC[C@@]45CCCN4C[C@H](F)C5)nc1c23 [Example 62] show?
12

Bench note: what IC50 did Cc1cc(N)cc(-c2cc3nc(OC[C@@]45CCCN4C[C@H](F)C5)nc4c3c(c2Cl)OCCN4C)c1C(F)(F)F [Example 39] show?
24

Bench note: what IC50 did Cc1cc(N)nc(-c2c(Cl)c3c4c(nc(OC[C@@]56CCCN5CC(F)(F)C6)nc4c2F)N([C@H](C)c2nccnc2N)CCO3)c1C(F)(F)F (atropisomer, axis not shown) [Example 165b] show?
890

Bench note: what IC50 did Cc1cc(N)nc(-c2c(Cl)c3c4c(nc(OC[C@]56CCCN5CC(F)(F)C6)nc4c2F)N([C@H](C)c2nccnc2N)CCO3)c1C(F)(F)F (atropisomer, axis not shown) [Example 166b] show?
640

Bench note: what IC50 did Cc1cc(N)nc(-c2c(Cl)c3c4c(nc(OC[C@@]56CCCN5C[C@H](F)C6)nc4c2F)N([C@H](C)c2nccnc2N)CCO3)c1C(F)(F)F (atropisomer, axis not shown; (aS)) [Example 101] show?
0.06

Bench note: what IC50 did Cc1cc(N)nc(-c2cc3ncnc4c3c(c2Cl)OCCN4[C@@H](C)c2cncc(N)c2)c1C(F)(F)F [Example 4] show?
1400

Bench note: what IC50 did Cc1cc(N)c(F)c(-c2c(Cl)c3c4c(nc(OC[C@@]56CCCN5C[C@H](F)C6)nc4c2F)N([C@H](C)c2cccnc2N)CCO3)c1I (single isomer, unassigned) [Example 74a] show?
0.09

Bench note: what IC50 did Cc1cc(N)nc(-c2c(Cl)c3c4c(nc(OC[C@@H]5CC[C@H]6COC(F)(F)CN56)nc4c2F)N([C@H](C)c2cccnc2N)CCO3)c1C(F)(F)F (atropisomer, axis not shown; (aS)) [Example 91a] show?
0.29

---

RECORDED_ENDPOINT: IC50 (nM)
Express the result in nM but write the number alone.

Quick check: IC50 on KRas (Homo sapiens (Human), UniProt P01116), item Cc1cc(N)nc(-c2c(Cl)c3c4c(nc(OC[C@@H]5CC[C@H]6COCCN65)nc4c2F)N([C@H](C)c2nccnc2N)CCO3)c1C(F)(F)F (atropisomer, axis not shown; (aS)) [Example 104a] ?
0.447

Quick check: IC50 on KRas (Homo sapiens (Human), UniProt P01116), item Cc1cc(N)nc(-c2c(Cl)c3c4c(nc(OC[C@@H]5CC[C@H]6COC(F)(F)CN56)nc4c2F)N([C@H](C)c2cccnc2N)CCO3)c1C(F)(F)F (atropisomer, axis not shown; (aS)) [Example 91a] ?
0.9

Quick check: IC50 on KRas (Homo sapiens (Human), UniProt P01116), item Cc1cc(N)nc(-c2c(Cl)c3c4c(nc(OCCN5C6CCC5CN(C)C6)nc4c2F)N([C@H](C)c2cccnc2N)CCO3)c1C(F)(F)F ?
0.175

Quick check: IC50 on KRas (Homo sapiens (Human), UniProt P01116), item Cc1cc(N)nc(-c2c(Cl)c3c4c(nc(OC[C@]56CCCN5CCOC6)nc4c2F)N([C@H](C)c2cccnc2N)CCO3)c1C(F)(F)F (atropisomer, axis not shown) [Example 128a] ?
0.149

Quick check: IC50 on KRas (Homo sapiens (Human), UniProt P01116), item Cc1cc(N)nc(-c2c(Cl)c3c4c(nc(OCC56COC(C5)C6)nc4c2F)N([C@H](C)c2cccnc2N)CCO3)c1C(F)(F)F ?
0.77

Quick check: IC50 on KRas (Homo sapiens (Human), UniProt P01116), item Cc1cc(N)nc(-c2c(Cl)c3c4c(nc(OC[C@@]56CCCN5C[C@H](F)C6)nc4c2F)N(C)CCO3)c1C(F)(F)F (single isomer, unassigned) [Example 41a] ?
11

Quick check: IC50 on KRas (Homo sapiens (Human), UniProt P01116), item Cc1cc(N)nc(-c2c(Cl)c3c4c(nc(OCC5(C#N)CCOCC5)nc4c2F)N([C@H](C)c2cccnc2N)CCO3)c1C(F)(F)F (atropisomer, axis not shown) ?
1.1

Quick check: IC50 on KRas (Homo sapiens (Human), UniProt P01116), item Cc1cc(N)nc(-c2c(Cl)c3c4c(nc(OC[C@@H]5CC[C@H]6CO[C@@H](C)CN56)nc4c2F)N([C@H](C)c2cccnc2N)CCO3)c1C(F)(F)F (atropisomer, axis not shown; (aS)) [Example 93a] ?
0.201

Quick check: IC50 on KRas (Homo sapiens (Human), UniProt P01116), item CC(=O)N1CCN2[C@H](COc3nc4c5c(c(Cl)c(-c6nc(N)cc(C)c6C(F)(F)F)c(F)c5n3)OCCN4[C@H](C)c3cccnc3N)CC[C@H]2C1 (atropisomer, axis not shown; (aS)) [Example 123a] ?
0.15

Quick check: IC50 on KRas (Homo sapiens (Human), UniProt P01116), item Cc1cc(N)nc(-c2cc3nc(OC[C@@]45CCCN4C[C@H](F)C5)nc4c3c(c2Cl)OCCN4Cc2ccn[nH]2)c1C(F)(F)F ?
46

Quick check: IC50 on KRas (Homo sapiens (Human), UniProt P01116), item Cc1cc(N)nc(-c2c(Cl)c3c4c(nc(OC[C@H]5CC[C@@H]6COCCN65)nc4c2F)N([C@H](C)c2cccnc2N)CCO3)c1C(F)(F)F (atropisomer, axis not shown; (aR)) [Example 87b] ?
0.18

Quick check: IC50 on KRas (Homo sapiens (Human), UniProt P01116), item Cc1cc(N)nc(-c2c(Cl)c3c4c(nc(OC[C@@]56CCCN5CC(F)(F)C6)nc4c2F)N([C@H](C)c2nccnc2N)CCO3)c1C(F)(F)F (atropisomer, axis not shown) [Example 165a] ?
2.14

Quick check: IC50 on KRas (Homo sapiens (Human), UniProt P01116), item Cc1cc(N)nc(-c2c(Cl)c3c4c(nc(OC[C@@H]5C[C@@H]6C[N@@]5CCO6)nc4c2F)N([C@H](C)c2cccnc2N)CCO3)c1C(F)(F)F (atropisomer, axis not shown) [Example 92a] ?
0.0648

Quick check: IC50 on KRas (Homo sapiens (Human), UniProt P01116), item Cc1cc(N)nc(-c2cc3ncnc4c3c(c2Cl)OCCN4C(c2cccnc2N)C2CC2)c1C(F)(F)F (stereo not drawn) ?
110

Quick check: IC50 on KRas (Homo sapiens (Human), UniProt P01116), item C=C1CN2CCC[C@@]2(COc2nc3c4c(c(Cl)c(-c5nc(N)cc(C)c5C(F)(F)F)c(F)c4n2)OCCN3C)C1 ?
4.6

Quick check: IC50 on KRas (Homo sapiens (Human), UniProt P01116), item C[C@H](c1cccnc1N)N1CCOc2c(Cl)c(-c3c(F)ccc4cnn(C)c34)c(F)c3nc(OC[C@@]45CCCN4C[C@H](F)C5)nc1c23 (single isomer, unassigned) [Example 105a] ?
0.23

Quick check: IC50 on KRas (Homo sapiens (Human), UniProt P01116), item C[C@H](c1cccnc1N)N1CCOc2c(Cl)c(-c3cccc4sc(N)nc34)c(F)c3nc(OC[C@@]45CCCN4C[C@H](F)C5)nc1c23 (atropisomer, axis not shown; (aS)) [Example 100a] ?
0.03

Quick check: IC50 on KRas (Homo sapiens (Human), UniProt P01116), item Cc1cc(N)nc(-c2c(Cl)c3c4c(nc(OC[C@@H]5COCCN5)nc4c2F)N([C@H](C)c2cccnc2N)CCO3)c1C(F)(F)F (atropisomer, axis not shown) ?
0.299

Quick check: IC50 on KRas (Homo sapiens (Human), UniProt P01116), item Cc1cc(N)nc(-c2c(Cl)c3c4c(nc(OC[C@@H]5CC(F)(F)CN5C)nc4c2F)N([C@H](C)c2cccnc2N)CCO3)c1C(F)(F)F (atropisomer, axis not shown) ?
0.32

Quick check: IC50 on KRas (Homo sapiens (Human), UniProt P01116), item Cc1cc(N)nc(-c2cc3ncnc4c3c(c2Cl)OCCN4C)c1C(F)(F)F ?
30000

Quick check: IC50 on KRas (Homo sapiens (Human), UniProt P01116), item Cc1cc(N)nc(-c2cc3ncnc4c3c(c2Cl)OC[C@H](CC#N)N4C)c1C(F)(F)F ?
4900
